Recorded values, source the supplement of paper PMC11908140.

B1: library; numbered along this chain (parent)
chain: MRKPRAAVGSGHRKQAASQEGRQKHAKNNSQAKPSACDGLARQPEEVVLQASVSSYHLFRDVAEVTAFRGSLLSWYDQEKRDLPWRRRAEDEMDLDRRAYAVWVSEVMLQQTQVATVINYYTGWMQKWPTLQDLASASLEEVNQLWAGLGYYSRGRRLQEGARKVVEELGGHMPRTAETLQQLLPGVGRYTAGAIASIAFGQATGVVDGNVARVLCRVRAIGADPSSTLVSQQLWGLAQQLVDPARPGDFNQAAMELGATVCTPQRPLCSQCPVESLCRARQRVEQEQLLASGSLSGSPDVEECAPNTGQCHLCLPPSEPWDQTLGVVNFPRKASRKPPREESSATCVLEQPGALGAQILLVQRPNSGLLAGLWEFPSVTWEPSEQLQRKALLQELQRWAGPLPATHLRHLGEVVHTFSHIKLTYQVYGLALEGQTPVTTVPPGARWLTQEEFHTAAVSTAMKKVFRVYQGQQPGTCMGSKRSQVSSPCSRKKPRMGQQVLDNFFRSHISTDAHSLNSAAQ

Variants of: B1
Measurement Description: 8OG:A repair function score (normalized; synonymous = 0, nonsense = -1) (normalized log-likelihood score); higher = more repair activity (WT-like);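 further: cells sorted at 72 h after reporter transfection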
Test Parameters: with 8OG:A DNA repair reporter (GFP) in HEK-293 MUTYH KO cells
Class boundaries, taken from values of 8OG:A repair function score, are as follows: zone 1 (below -0.5), zone 2 (-0.5 to below -0.07), zone 3 (-0.07 or more)

Band of R389V ?
zone 3

Band of P225Y ?
zone 3

Band of S227Y ?
zone 2

Band of A520W ?
zone 3

Band of E106D ?
zone 1

Band of L349K ?
zone 1

Band of A457K ?
zone 1

Band of Q286V ?
zone 3

Band of I421V ?
zone 2

Band of V465W ?
zone 1

Band of M462T ?
zone 3

Band of Q239P ?
zone 1

Band of A245L ?
zone 3

Band of A445G ?
zone 3

Band of H410E ?
zone 2

Band of P383K ?
zone 2

Band of R281H ?
zone 3

Band of V62M ?
zone 3

Band of E433F ?
zone 2

Band of H312V ?
zone 3

Band of S378P ?
zone 1

Band of R163I ?
zone 2

Band of R389Q ?
zone 1

Band of G401K ?
zone 1

Band of V379I ?
zone 2

Band of A334R ?
zone 3

Band of L158D ?
zone 1

Band of G326S ?
zone 2
